- Tested on: P. falciparum stage V gametocytes
- Design: BacTiter-Glo ATP luminescence viability of purified stage V gametocytes in 384-well plates, per cent inhibition versus DMSO
- MEASUREMENT_CONDITIONS: 48 h, 5 µM; inhibitor
In all, about 13,000 compounds went through this assay and about 3,200 (25%) showed an effect of 50% or more. This is one part of the list.
Would you kindly list % Inhibition for each of these molecules?
Report only the number, with the unit % understood.

Quick check: % Inhibition on P. falciparum stage V gametocytes, item Cc1cc(CN2CC[C@H](NC(=O)c3ccc(Cl)c(Cl)c3)C2)ccc1OC1CCN(Cc2ccccc2)CC1 [TCMDC-140282] ?
-33.37

Quick check: % Inhibition on P. falciparum stage V gametocytes, item CCCCCN1CCCC(NS(=O)(=O)c2ccc(C(=O)Nc3cccc(C(F)(F)F)c3)cc2)C1 (stereo not shown) [TCMDC-132774] ?
-2.262

Quick check: % Inhibition on P. falciparum stage V gametocytes, item O=c1cc(NCCCNCc2cc3ccccc3s2)[nH]c2ccccc12 [TCMDC-140234] ?
-96.03

Quick check: % Inhibition on P. falciparum stage V gametocytes, item O=C(Cc1ccc(-c2ccccc2)cc1)N[C@H]1CCN(Cc2ccc(OCCCN3CCCCC3)cc2)C1 [TCMDC-141776] ?
70.4

Quick check: % Inhibition on P. falciparum stage V gametocytes, item CCCCCN1CCCC(NS(=O)(=O)c2cccc(C(=O)Nc3cccc(C(F)(F)F)c3)c2)C1 (stereo not shown) [TCMDC-132768] ?
75.62

Quick check: % Inhibition on P. falciparum stage V gametocytes, item CC1CCc2sc(-c3nnc(SC(C)C(=O)NC4CC4)o3)cc2C1 (stereo not shown) [TCMDC-124866] ?
6.4

Quick check: % Inhibition on P. falciparum stage V gametocytes, item CCCCCN1CCCCC(NS(=O)(=O)c2ccc(C(=O)Nc3cccc(C(F)(F)F)c3)cc2)C1 (stereo not shown) [TCMDC-132778] ?
-0.2647

Quick check: % Inhibition on P. falciparum stage V gametocytes, item CCCCCN1CCC(NS(=O)(=O)c2cccc(C(=O)Nc3cccc(C(F)(F)F)c3)c2)C1 (stereo not shown) [TCMDC-132488] ?
-38

Quick check: % Inhibition on P. falciparum stage V gametocytes, item O=C(N[C@@H](Cc1ccccc1)CN1CCC(Oc2ccc(F)cc2)CC1)c1ccc(OCCCN2CCCCC2)cc1 [TCMDC-135416] ?
28.27

Quick check: % Inhibition on P. falciparum stage V gametocytes, item CC(=O)Nc1ccccc1OCc1cc2cc(C(=O)N3CCC(N4C(=O)OCc5ccccc54)CC3)ccc2o1 [TCMDC-138453] ?
6.686

====

- System: P. falciparum stage V gametocytes
- Design: BacTiter-Glo ATP luminescence viability of purified stage V gametocytes in 384-well plates, per cent inhibition versus DMSO
- MEASUREMENT_CONDITIONS: 48 h, 5 µM; inhibitor
The whole screen tested about 13,000 compounds, of which about 3,200 (25%) showed an effect of 50% or more. Some of the results follow.
Would you kindly list % Inhibition for each of these compounds?
Report only the number, with the unit % understood.

What value of % Inhibition has been reported for the following compound? `CCCCCCNCc1c(O)ccc2c(CNCCCCCC)c(O)ccc12`
-1.678

What value of % Inhibition has been reported for the following compound? `CC(C)C[C@H]1C(=O)N[C@H](C2Cc3ccccc3C2)C(=O)N1[C@@H](C(=O)Nc1ccccc1OCc1ccccc1)c1ccc(F)cc1F`
-10.16

What value of % Inhibition has been reported for the following compound? `CCn1cnc2c(N3CCCC3=O)cc(C(=O)N[C@@H](Cc3ccccc3)[C@H](O)CNC3CCCCC3)cc21`
-30.5

====

Would you kindly list % Inhibition for each of these compounds?
- Test system: P. falciparum stage V gametocytes
- Design: BacTiter-Glo ATP luminescence viability of purified stage V gametocytes in 384-well plates, per cent inhibition versus DMSO
- MEASUREMENT_CONDITIONS: 48 h, 5 µM; inhibitor
Out of some 13,000 compounds screened, about 3,200 (25%) showed an effect of 50% or more. The list shows a part of the results.
Report only the number, with the unit % understood.

What value of % Inhibition has been reported for the following compound? CCCCCCN1CCCN(Cc2ccc(C(=O)Nc3ccc(C)c(F)c3)cc2)CC1 [TCMDC-136411]
22.16

What value of % Inhibition has been reported for the following compound? Clc1ccc(OC2CCC(Cn3ccnc3)(c3ccc(Cl)cc3Cl)CC2)c(Cl)c1 (stereo not drawn) [TCMDC-132089]
67.21

What value of % Inhibition has been reported for the following compound? O=C(c1ccccc1[N+](=O)[O-])N(Cc1ccccc1)c1ccccn1 [TCMDC-125748]
16.59

What value of % Inhibition has been reported for the following compound? O=C(N[C@@H](CC1CCCCC1)C(=O)NCCN1CCCC1)c1ccc(O)c(-c2cccc(C(F)(F)F)c2)c1 [TCMDC-140811]
39

What value of % Inhibition has been reported for the following compound? O=C(c1cc(C(=O)NC2CCCCC2)c(=O)n(C2CCCCC2)c1)c1cc(F)ccc1O [TCMDC-124525]
20.48

What value of % Inhibition has been reported for the following compound? OC(Cn1ccnc1)(c1ccc(Cl)cc1Cl)C1CCCCC1 (stereo not drawn) [TCMDC-132084]
-1.887

What value of % Inhibition has been reported for the following compound? CCCCOc1c(CCC)cc(Cc2cnc(N)nc2N)cc1CCC [TCMDC-137692]
-41.23

What value of % Inhibition has been reported for the following compound? CON=C1CCC(Cn2ccnc2)(c2ccc(Cl)cc2Cl)CC1 (stereo not drawn) [TCMDC-132070]
-6.365

What value of % Inhibition has been reported for the following compound? COC(=O)C(C)(C)c1ccc(CC(C)NCC(O)c2cccc(C(F)(F)F)c2)cc1 (stereo not drawn) [TCMDC-131482]
7.113

What value of % Inhibition has been reported for the following compound? O=C(/C=C/c1ccc(C(F)(F)F)cc1)NCCCCCN1CCCN(C(=O)Nc2cccc(Cl)c2)CC1 [TCMDC-136108]
-11.12

What value of % Inhibition has been reported for the following compound? COc1ccc(OCC(=O)Nc2cc(-c3nc4ccccc4[nH]3)ccc2Cl)cc1 [TCMDC-125425]
-8.801

What value of % Inhibition has been reported for the following compound? CCCc1cc(Cc2cnc(N)nc2N)cc2c1OC(C)C2C (stereo not drawn) [TCMDC-138047]
3.526

What value of % Inhibition has been reported for the following compound? CCCCNCCOc1ccc(-c2nc(-c3ccccc3)c(-c3ccccc3)[nH]2)cc1 [TCMDC-138053]
74.26

What value of % Inhibition has been reported for the following compound? COc1ccc2nccc([C@@H](O)CN3CCC(NCc4nc5c(cc4Cl)OCC(=O)N5)C(F)C3)c2c1 (stereo partly drawn) [TCMDC-141722]
15.19

What value of % Inhibition has been reported for the following compound? CC(=O)NC1=NC(C)(C)N(OCCCOc2ccc(Cl)c(Cl)c2)C(NC(C)=O)=N1 [TCMDC-131742]
2.376

====

- Test system: P. falciparum stage V gametocytes
- Set-up: BacTiter-Glo ATP luminescence viability of purified stage V gametocytes in 384-well plates, per cent inhibition versus DMSO
- MEASUREMENT_CONDITIONS: 48 h, 5 µM; inhibitor
In all, about 13,000 compounds went through this assay and about 3,200 (25%) showed an effect of 50% or more. The list shows a part of the results.
Each record's class is read off its % Inhibition using these ranges: Low: < -30%; Medium: ≥ -30% and < 20%; High: ≥ 20%

Please report the category associated with `c1ccc(CN2CCC(NCc3ccccc3-c3cccc(CNC4CCCC4)c3)CC2)cc1` , nothing else.
High

Please report the category associated with CC(Nc1ccc2c(c1)OCCO2)C(=O)Nc1cc(C(F)(F)F)ccc1N1CCOCC1 (stereo not shown) , nothing else.
Low

Please report the category associated with `CCN(CC)CCOc1ccc(Nc2ncc3cc(-c4c(Cl)cccc4Cl)c(=O)n(C)c3n2)cc1` , nothing else.
Medium

Please report the category associated with CCCC(CNCc1cccc(I)c1)CNc1cc(=O)c2ccccc2[nH]1 (stereo not shown) , nothing else.
High

Please report the category associated with O=c1cc(NCCCNC(CNCCc2ccccc2)c2cc(Br)cc(Br)c2)[nH]c2ccccc12 (stereo not shown) , nothing else.
Low

Please report the category associated with `COc1ccccc1CCNc1nccc(N[C@@H](Cc2ccccc2)C(=O)NCc2cccs2)n1` , nothing else.
High

Please report the category associated with `CCN1CCN(Cc2c(O)ccc3c(=O)c(Oc4cc(C)cc(C)c4)c(C(F)(F)F)oc23)CC1` , nothing else.
Medium

Please report the category associated with `O=C(Nc1ccc(CCNCc2ccccc2)cc1)Nc1ccc(OC(F)(F)F)cc1` , nothing else.
Medium

Please report the category associated with O=c1cc(NCCC(CNCCc2ccccc2)NCc2cc(Br)cc(Br)c2)[nH]c2ccccc12 (stereo not shown) , nothing else.
High

Please report the category associated with `O=c1cc(NCCCCNCc2cccc(Br)c2)[nH]c2ccccc12` , nothing else.
Low

Please report the category associated with `CCCCOc1cc(C)nc2ccc(NC(=O)COCC(=O)Nc3ccc4nc(C)cc(OCCCC)c4c3)cc12` , nothing else.
Low

Please report the category associated with CC(Oc1ccc(Cl)cc1)C(=O)Nc1cc(C(F)(F)F)ccc1-n1cncn1 (stereo not shown) , nothing else.
Medium

Please report the category associated with `COc1ccc(NC(=O)[C@H](CC(C)C)Nc2cc(C)nc(NCc3ccccc3C)n2)cc1` , nothing else.
Low

Please report the category associated with `NCc1ccc(-c2ccccc2CNC2CCN(Cc3ccccc3)CC2)cc1` , nothing else.
High

Please report the category associated with `CCOc1cc(O)c(-c2nc(N)ncc2-c2ccc3c(c2)OCCO3)cc1CC` , nothing else.
Medium

Please report the category associated with `CC(C)(C)c1ccccc1OC(=O)c1ccccc1` , nothing else.
Medium

Please report the category associated with `O=C(Nc1cccc([N+](=O)[O-])c1)Nc1cccc(C(F)(F)F)c1` , nothing else.
Low

Please report the category associated with `O=C(Nc1ccc([N+](=O)[O-])cc1)Nc1cc(C(F)(F)F)ccc1F` , nothing else.
Low

Please report the category associated with `COc1ccc(Nc2nccc(-c3ccc(NC(=O)c4cc5cc(F)ccc5[nH]4)cc3)n2)cc1` , nothing else.
High

Please report the category associated with `O=C(Nc1ccc(OC(F)(F)F)cc1)Nc1ccc([N+](=O)[O-])cc1` , nothing else.
Low

Please report the category associated with `CCn1ncc2c(N3CCCC3=O)cc(C(=O)N[C@@H](Cc3ccccc3)[C@H](O)CNC(C)(C)c3cccc(OC)c3)cc21` , nothing else.
High

Please report the category associated with `NCc1cccc(-c2ccccc2CNC2CCN(Cc3ccccc3)CC2)c1` , nothing else.
High

Source listed as paper PMC4552634.
